# target_of_assay: human TYRO3 (455-end) (Homo sapiens)
# Construct: TYRO3 (455-end); purchased SignalChem, Canada
# Sequence (Q06418 455-890 limits assumed): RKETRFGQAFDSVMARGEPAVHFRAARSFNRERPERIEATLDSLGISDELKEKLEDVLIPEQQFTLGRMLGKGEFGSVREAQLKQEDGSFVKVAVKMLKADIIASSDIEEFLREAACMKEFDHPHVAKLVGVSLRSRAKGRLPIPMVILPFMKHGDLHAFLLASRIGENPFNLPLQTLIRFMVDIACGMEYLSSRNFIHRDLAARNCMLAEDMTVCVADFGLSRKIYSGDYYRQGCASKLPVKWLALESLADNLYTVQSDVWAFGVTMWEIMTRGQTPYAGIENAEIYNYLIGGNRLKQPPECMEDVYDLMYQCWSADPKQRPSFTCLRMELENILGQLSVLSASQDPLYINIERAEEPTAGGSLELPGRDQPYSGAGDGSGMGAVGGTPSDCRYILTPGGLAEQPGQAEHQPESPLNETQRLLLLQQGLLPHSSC
# test_summary: HTRF kinase activity biochemical assay, TYRO3
# setup_conditions: 10 μM ATP, 30 minutes pre-incubation; read-out: HTRF TYRO IC50
pIC50: −log10 of the molar value.

compound	pIC50
Cn1cc(-c2cnc(N)c(C(=O)N[C@H]3CCC[C@@H]3OCc3ccc(-c4ccc5c(c4)CC[C@@H]5N4CCN(CC(O)CO)CC4)cc3)c2)cn1 (some centres unmarked) [Example 98]	7.00 to 8.00
CC1(C)C[C@@H](N2CCN(CCO)CC2)c2ccc(-c3ccc(CO[C@H]4CCC[C@@H]4NC(=O)c4cc(-c5ccc(F)nc5)cnc4N)cc3)cc21 [Example 97]	< 6.00
Nc1ncc(-c2cccnc2F)cc1C(=O)N[C@H]1CCC[C@@H]1OCc1ccc(-c2ccc3c(c2)CCC[C@@H]3N2CCN(C[C@H](O)CO)CC2)cc1 [Example 173]	7.00 to 8.00
Cc1csc(-c2cnc(N)c(C(=O)N[C@H]3CCC[C@@H]3OCc3ccc(-c4ccc5c(c4)CC[C@@H]5N4CCN(CCO)CC4)cc3)c2)n1 [Example 181]	7.00 to 8.00
CC1(C)CC(N2CCN(CCO)CC2)c2ccc(-c3ccc(CO[C@H]4CCC[C@@H]4NC(=O)c4cc(-c5cccnc5F)cnc4N)cc3)cc21 (some centres unmarked) [Example 119]	7.00 to 8.00
Cn1cc(-c2cnc(N)c(C(=O)N[C@H]3CCC[C@@H]3OCc3ccc(-c4ccc5c(c4)C4(CC4)CN(C4CCN(CCO)CC4)C5)cc3)c2)cn1 [Example 72]	< 6.00
Cn1cc(-c2cnc(N)c(C(=O)N[C@H]3CCC[C@@H]3OCc3ccc(-c4cnc5c(c4)C(C)(C)CN5C4CCN(CCO)CC4)cc3)c2)cn1 [Example 77]	7.00 to 8.00
Cc1c(-c2cnc(N)c(C(=O)N[C@H]3COC[C@@H]3OCc3ccc(-c4ccc5c(c4)C(C)(C)CN5C4CCN(CCO)CC4)cc3)c2)cnn1C [Example 47]	7.00 to 8.00
CN(C)CC(=O)NC1Cc2ccc(-c3ccc(CO[C@H]4CCC[C@@H]4NC(=O)c4cc(-c5cnn(C)c5)cnc4N)cc3)cc2C1 (some centres unmarked) [Example 9]	< 6.00
CN1CCN([C@H]2CC(C)(C)c3cc(-c4ccc(CO[C@H]5CCC[C@@H]5NC(=O)c5cc(-c6cnn(C)c6)cnc5N)cc4)ccc32)CC1 [Example 144]	> 8.00
Nc1ncc(C(F)(F)F)cc1C(=O)N[C@H]1COC[C@@H]1OCc1ccc(-c2ccc3c(ccn3C3CCN(CCO)CC3)c2)cc1 [Example 24]	< 6.00
N#Cc1ccc(-c2cnc(N)c(C(=O)N[C@H]3CCC[C@@H]3OCc3ccc(-c4ccc5c(c4)CC[C@@H]5N4CCN(CCO)CC4)cc3)c2)cn1 [Example 153]	6.00 to 7.00
Cn1cc(-c2cnc(N)c(C(=O)N[C@H]3COC[C@@H]3OCc3ccc(-c4ccc5c(c4)CCC5N4CCN(CCO)CC4)cc3)c2)cn1 (some centres unmarked) [Example 18]	6.00 to 7.00
COc1c(-c2cnn(C)c2)cnc(N)c1C(=O)N[C@H]1CCC[C@@H]1OCc1ccc(-c2ccc3c(c2)CC[C@@H]3N2CCN(CCO)CC2)cc1 [Example 155]	6.00 to 7.00
Cc1nc(-c2cnc(N)c(C(=O)N[C@H]3CCC[C@@H]3OCc3ccc(-c4ccc5c(c4)CC[C@@H]5N4CCN(CCO)CC4)cc3)c2)cs1 [Example 180]	7.00 to 8.00
CN1CCN([C@@H]2CC(C)(C)c3cc(-c4ccc(CO[C@H]5CCC[C@@H]5NC(=O)c5cc(-c6cnn(C)c6)cnc5N)cc4)ccc32)CC1 [Example 145]	< 6.00
Cn1cc(-c2cnc(N)c(C(=O)N[C@H]3CCC[C@@H]3OCc3ccc(-c4ccc5c(c4)CC(F)(F)C5N4CCN(CC(O)CO)CC4)cc3)c2)cn1 (mixture of isomers) [Example 59]	6.00 to 7.00
CN1CCN([C@H]2CCc3cc(-c4ccc(CO[C@H]5CCC[C@@H]5NC(=O)c5cc(C(F)(F)F)cnc5N)cc4)ccc32)CC1 [Example 143]	6.00 to 7.00
Cn1cc(-c2cnc(N)c(C(=O)N[C@H]3COC[C@@H]3OCc3ccc(-c4ccc5c(ccn5C5CCN(CCO)CC5)c4)cc3)c2)cn1 [Example 14]	< 6.00
CN1CCN(C2CC(C)(C)c3cc(-c4ccc(CO[C@H]5CCC[C@@H]5NC(=O)c5cc(-c6ccn(C)c(=O)c6)cnc5N)cc4)ccc32)CC1 (some centres unmarked) [Example 107]	7.00 to 8.00
Cn1ccc(-c2cnc(N)c(C(=O)N[C@H]3CCC[C@@H]3OCc3ccc(-c4ccc5c(c4)CC(F)(F)C5N4CCN(CC(O)CO)CC4)cc3)c2)cc1=O (some centres unmarked) [Example 63]	6.00 to 7.00
Nc1ncc(-c2cccnc2F)cc1C(=O)N[C@H]1CCC[C@@H]1OCc1ccc(-c2ccc3c(c2)CC[C@@H]3N2CCN3C[C@H](O)C[C@H]3C2)cc1 [Example 160]	7.00 to 8.00
Cn1cc(-c2cnc(N)c(C(=O)N[C@H]3CCC[C@@H]3OCc3ccc(-c4ccc5c(n4)C(C)(C)CN5C4CCN(CCO)CC4)cc3)c2)cn1 [Example 113]	6.00 to 7.00
